# system.tested: T1, human LAG3 expressed on cells (human, UniProt P18627 23-525)
# T1 sequence (looked up): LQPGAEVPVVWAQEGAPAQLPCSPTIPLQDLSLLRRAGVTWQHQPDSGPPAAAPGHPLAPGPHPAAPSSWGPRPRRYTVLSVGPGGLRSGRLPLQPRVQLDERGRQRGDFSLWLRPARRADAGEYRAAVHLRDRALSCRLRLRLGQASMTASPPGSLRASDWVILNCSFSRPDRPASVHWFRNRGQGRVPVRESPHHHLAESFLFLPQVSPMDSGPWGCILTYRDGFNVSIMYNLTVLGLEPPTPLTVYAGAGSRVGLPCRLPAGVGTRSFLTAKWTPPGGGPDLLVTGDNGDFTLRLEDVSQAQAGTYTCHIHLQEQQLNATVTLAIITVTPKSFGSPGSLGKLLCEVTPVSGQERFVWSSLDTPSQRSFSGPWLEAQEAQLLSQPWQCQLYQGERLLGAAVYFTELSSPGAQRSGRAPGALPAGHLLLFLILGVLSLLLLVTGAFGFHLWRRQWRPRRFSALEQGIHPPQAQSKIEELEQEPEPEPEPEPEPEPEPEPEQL
# assay.remarks: cell-based or functional assay
reported.endpoint: IL-2, % of BMS, at 1.234567901 ug/mL (%)
Unit % implied. Number only.

| binder | IL-2, % of BMS, at 1.234567901 ug/mL [%] |
| --- | --- |
| sdAb No. 24 (VHH, Fc of the tested form not described; also called sdAb 24; not shown: Fc part implied by anti-human Fc capture) VHH: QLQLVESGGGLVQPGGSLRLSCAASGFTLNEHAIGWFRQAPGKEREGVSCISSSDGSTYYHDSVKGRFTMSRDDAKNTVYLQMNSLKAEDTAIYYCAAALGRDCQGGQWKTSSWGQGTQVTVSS | 17.8 |

Below: the item to evaluate.
Specify measured IL-2, % of BMS, at 1.234567901 ug/mL for sdAb No. 1 (VHH, the tested form was captured by anti-human Fc, its Fc is not described; also called sdAb 1; not shown: Fc part implied by anti-human Fc capture) VHH: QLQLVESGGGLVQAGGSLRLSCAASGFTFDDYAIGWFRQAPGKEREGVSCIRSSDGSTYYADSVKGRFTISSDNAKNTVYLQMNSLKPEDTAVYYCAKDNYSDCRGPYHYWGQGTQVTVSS .
30.7

Every entry's value here was drawn from patent US20230303690A1.
